These entries and their values trace back to ChEMBL document CHEMBL1961873.

# Tested on: Tyrosine-protein kinase ABL1 (Homo sapiens), P00519 [T315I]
# assayContext: at 0.1 µM
Would you kindly list inhibition for each of these compounds?
Answer with the figure and its unit, nothing else.

Determine its reported inhibition: `CCOc1ccc2c(-c3ccnc(Nc4cccc(C(F)(F)F)c4)n3)cnn2n1` -0.14%

Report inhibition for `Fc1cccc(COc2ccc(Nc3ncnc4sc(-c5ccco5)cc34)cc2Cl)c1` 1.83%

Please report inhibition for the following compound: `COC(=O)Nc1nc2ccc(S(=O)(=O)c3ccc(NC(=O)Nc4cc(C(F)(F)F)ccc4F)cc3)cc2[nH]1` 2.49%

Recall and state the measured inhibition for `CCNC(=O)O[C@H]1CN[C@H](C#Cc2cc3ncnc(Nc4ccc(OCc5cccc(F)c5)c(Cl)c4)c3s2)C1` . 1.66%

Fill in reported inhibition for this entry: `CS(=O)(=O)CCNCc1coc(-c2ccc3ncnc(Nc4ccc(OCc5ccccc5)cc4)c3c2)c1` 1.94%

Assign inhibition to the following record: `CCCN1CCC(c2ccc(Nc3nc(Nc4cc(F)ccc4C(N)=O)c4cc[nH]c4n3)c(OC)c2)CC1` 3.58%

Recall and state the measured inhibition for `COc1ccc(CNC(=O)c2ccc(-c3cc(-c4nnc(C)o4)ccc3C)cc2)cc1` . 0.75%

In one line, give reported inhibition of the entry `CC(C)COC(=O)c1ccc2c(c1)/C(=C/Nc1ccc(S(N)(=O)=O)cc1)C(=O)N2` . 5.23%

Look up inhibition of `c1ccc(COc2ccc(Nc3ncnc4ccc(-c5ccco5)cc34)cc2)cc1` and report it. 1.64%

Please give the documented inhibition of `COc1ccc(-c2oc3ncnc(N)c3c2-c2ccc(NC(=O)Nc3cc(C(F)(F)F)ccc3F)cc2)cc1` 21.9%

Report inhibition, nothing else, for this compound: `NS(=O)(=O)c1ccc(N/N=C2\C(=O)Nc3ccc4ncccc4c32)cc1` 8.91%

Give the reported value of inhibition for this record: `COc1cc2ncn(-c3cc(OCc4ccccc4C(F)(F)F)c(C(=O)N(C)C)s3)c2cc1OC` -0.89%

For the compound `Nc1nc(-c2cccc(Cl)c2)c(-c2ccc3ncccc3n2)s1` , give its measured inhibition value. 3.18%

Give inhibition for `CNC(=O)c1cccc(C#Cc2cncnc2Nc2ccc(OCc3cccc(F)c3)c(Cl)c2)c1` 1.23%

For `CCn1cc(-c2ccnc3[nH]ccc23)c(-c2cccc(NC(=O)Nc3ccc(OCc4ccccc4)cc3)c2)n1` , write its inhibition. -0.6%

// fetch inhibition given entry `CCn1c(-c2nonc2N)nc2cnc(Oc3cccc(NC(=O)c4ccc(N(C)C)cc4)c3)cc21` 1.38%

Answer with the recorded inhibition for the compound listed here: `CN1CCC(n2cnc(-c3ccc(F)cc3)c2-c2ccnc(N)n2)CC1` 1.94%

Answer with reported inhibition of `CCn1c(-c2nonc2N)nc2c(C#CC(C)(C)O)nc(OC[C@H](N)c3ccccc3)cc21` 0.64%

Specify inhibition for `c1cc(-c2cnn3nc(N4CCOCC4)ccc23)nc(NC2CC2)n1` and stop. 2.17%

Specify measured inhibition for `FC(F)(F)c1cccc(-c2nn3ncccc3c2-c2ccnc(Nc3ccc4c(c3)OCCO4)n2)c1` . 10.1%

Please list inhibition recorded for the compound `CNC(=O)c1cncc(/C=C/c2ccccc2Cl)c1` 0.79%

Kindly indicate its recorded inhibition. Item: `Cc1cccc2c1NC(=O)/C2=N\Nc1ccc(S(N)(=O)=O)cc1` 2.54%

Please report inhibition for the following compound: `COc1ccc(-c2cc(-c3c[nH]nc3-c3ccccn3)ccn2)cc1` 3.29%

In one line, give reported inhibition of the entry `COc1ccc(-c2cc3c(N)ncnc3o2)cc1` . 0.76%

For `CC(=O)Nc1cccc(C#Cc2cncnc2Nc2ccc(OCc3cccc(F)c3)c(Cl)c2)c1` , write its inhibition. 1.92%

Hello, please tell me recorded inhibition for this one: `CCn1c(-c2nonc2N)nc2ccccc21` 2.3%

Output measured inhibition for this item: `COc1ccc(-c2nn3ncccc3c2-c2ccnc(Nc3ccc4c(c3)OCCO4)n2)cc1` 2.65%

Answer with reported inhibition of `CCn1c(-c2nonc2N)nc2c(C#CC(C)(C)O)ncc(OC3CCNCC3)c21` 2.72%

Given `O=C(O[C@H]1CN[C@H](C#Cc2cc3ncnc(Nc4ccc(Cc5ccccc5)cc4)c3s2)C1)N1CCOCC1` , respond with its inhibition. 0.08%

Give recorded inhibition. `CC(C)(CO)CNC(=O)c1ccc2c(c1)/C(=N/Nc1ccc(S(N)(=O)=O)cc1)C(=O)N2` -2%

Return the recorded inhibition value; entry: `c1ccc(-c2nc3n(c2-c2ccc4c(c2)OCO4)CCC3)nc1` 0.65%

Report inhibition, nothing else, for this compound: `CCc1nn2ncccc2c1-c1ccnc(NC2CC2)n1` 0.33%

Give the value of inhibition reported for the following: `COc1ccc2[nH]c3c4[nH]c5ccc(OC)cc5c4c4c(c3c2c1)C(=O)NC4=O` 9.34%

Recall and state the measured inhibition for `Fc1ccc(-c2cc(-c3c[nH]nc3-c3ccccn3)ccn2)cc1` . 3.13%

Note inhibition for the compound shown: `CCN(CC)S(=O)(=O)c1ccc(OC)c(Nc2ncc(-c3ccccc3)o2)c1` 1.63%

Supply measured inhibition of `CN1CCC(n2cnc(-c3ccc(F)cc3)c2-c2ccnc(Nc3ccccc3)n2)CC1` in your reply. 1.45%

Item `O=S(=O)(CCNCc1ccc(-c2ccc3ncnc(Nc4ccc(OCc5cccc(F)c5)c(Cl)c4)c3c2)o1)c1ccccc1` : provide inhibition 2.35%

Query inhibition for `COc1cccc(-c2c[nH]c3c(N/N=C/c4ccncc4)ncnc23)c1` 11.8%

# return recorded inhibition for entry `COC(=O)Nc1nc2ccc(Oc3ccc(NC(=O)Nc4cccc(Cl)c4)cc3)cc2[nH]1` 23.3%

----------
Record form. Attribute: inhibition. Fill in for each entry.
# System: Leucine-rich repeat serine/threonine-protein kinase 2 (Homo sapiens), Q5S007 [G2019S]
# Sequence (Q5S007 whole entry G2019S): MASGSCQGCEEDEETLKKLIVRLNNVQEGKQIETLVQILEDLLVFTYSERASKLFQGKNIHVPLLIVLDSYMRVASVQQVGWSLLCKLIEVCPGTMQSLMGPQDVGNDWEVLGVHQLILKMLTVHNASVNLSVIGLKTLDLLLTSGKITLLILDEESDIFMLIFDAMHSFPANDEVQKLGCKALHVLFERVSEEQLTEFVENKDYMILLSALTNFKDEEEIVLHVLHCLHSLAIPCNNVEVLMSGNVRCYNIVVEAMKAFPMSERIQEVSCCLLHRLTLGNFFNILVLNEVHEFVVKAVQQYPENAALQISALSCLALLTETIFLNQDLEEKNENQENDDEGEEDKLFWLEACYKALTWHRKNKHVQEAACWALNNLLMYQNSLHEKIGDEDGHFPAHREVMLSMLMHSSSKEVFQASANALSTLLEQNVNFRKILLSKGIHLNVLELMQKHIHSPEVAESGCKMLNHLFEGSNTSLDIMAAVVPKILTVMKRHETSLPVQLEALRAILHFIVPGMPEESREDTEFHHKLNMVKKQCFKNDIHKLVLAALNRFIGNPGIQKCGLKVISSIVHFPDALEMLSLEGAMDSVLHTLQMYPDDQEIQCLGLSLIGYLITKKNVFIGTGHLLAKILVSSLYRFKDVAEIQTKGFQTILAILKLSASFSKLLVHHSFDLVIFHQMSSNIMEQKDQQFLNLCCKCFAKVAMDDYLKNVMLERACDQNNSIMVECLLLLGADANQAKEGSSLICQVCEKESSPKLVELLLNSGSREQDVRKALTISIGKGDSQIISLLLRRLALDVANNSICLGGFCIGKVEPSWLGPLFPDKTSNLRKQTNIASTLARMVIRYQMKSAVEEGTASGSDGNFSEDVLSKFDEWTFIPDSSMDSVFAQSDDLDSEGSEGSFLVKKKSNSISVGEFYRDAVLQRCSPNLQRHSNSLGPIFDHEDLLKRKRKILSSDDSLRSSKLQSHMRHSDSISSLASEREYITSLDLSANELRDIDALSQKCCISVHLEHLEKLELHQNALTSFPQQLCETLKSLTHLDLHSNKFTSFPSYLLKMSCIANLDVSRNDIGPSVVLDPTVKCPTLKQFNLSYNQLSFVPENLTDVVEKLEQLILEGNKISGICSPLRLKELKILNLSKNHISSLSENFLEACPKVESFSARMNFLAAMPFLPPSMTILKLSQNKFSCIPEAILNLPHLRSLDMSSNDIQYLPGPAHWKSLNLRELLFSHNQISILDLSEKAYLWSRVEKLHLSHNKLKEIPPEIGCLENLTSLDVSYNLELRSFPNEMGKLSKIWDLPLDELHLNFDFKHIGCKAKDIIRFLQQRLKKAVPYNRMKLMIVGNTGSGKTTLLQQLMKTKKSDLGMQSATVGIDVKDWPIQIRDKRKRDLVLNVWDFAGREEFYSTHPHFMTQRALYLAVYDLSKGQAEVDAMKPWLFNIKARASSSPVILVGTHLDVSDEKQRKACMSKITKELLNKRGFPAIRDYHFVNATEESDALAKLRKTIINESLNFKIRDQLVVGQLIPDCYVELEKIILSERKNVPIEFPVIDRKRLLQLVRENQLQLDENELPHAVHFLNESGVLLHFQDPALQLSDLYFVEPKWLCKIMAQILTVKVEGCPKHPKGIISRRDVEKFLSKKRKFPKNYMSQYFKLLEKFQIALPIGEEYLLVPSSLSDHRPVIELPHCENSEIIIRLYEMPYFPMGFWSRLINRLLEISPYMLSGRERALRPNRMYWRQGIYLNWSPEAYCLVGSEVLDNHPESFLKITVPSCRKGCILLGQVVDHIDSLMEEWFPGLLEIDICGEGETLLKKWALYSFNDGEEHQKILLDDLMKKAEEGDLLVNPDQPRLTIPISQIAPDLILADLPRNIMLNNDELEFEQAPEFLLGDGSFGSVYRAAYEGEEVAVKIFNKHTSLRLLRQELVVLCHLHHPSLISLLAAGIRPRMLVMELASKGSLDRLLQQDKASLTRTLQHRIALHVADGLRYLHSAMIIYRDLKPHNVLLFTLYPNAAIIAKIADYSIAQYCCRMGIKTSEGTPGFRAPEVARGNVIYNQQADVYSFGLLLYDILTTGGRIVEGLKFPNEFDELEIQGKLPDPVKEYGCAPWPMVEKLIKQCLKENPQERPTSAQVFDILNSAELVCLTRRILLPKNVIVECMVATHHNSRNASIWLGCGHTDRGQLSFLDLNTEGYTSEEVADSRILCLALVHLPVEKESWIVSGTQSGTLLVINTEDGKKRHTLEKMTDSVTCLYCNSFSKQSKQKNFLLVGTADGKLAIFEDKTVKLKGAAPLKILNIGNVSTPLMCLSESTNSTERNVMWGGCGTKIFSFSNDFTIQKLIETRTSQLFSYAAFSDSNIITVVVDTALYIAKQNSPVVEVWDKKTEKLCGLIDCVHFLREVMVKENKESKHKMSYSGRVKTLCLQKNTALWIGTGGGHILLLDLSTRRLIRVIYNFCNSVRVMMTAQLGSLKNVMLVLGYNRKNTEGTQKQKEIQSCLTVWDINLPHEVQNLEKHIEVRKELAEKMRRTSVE
# assayContext: at 1 µM
# output: bare number, implied unit %

Identify measured inhibition corresponding to `CN(C)CCOc1ccc(-c2nc(-c3ccncc3)c(-c3ccc4c(c3)CC/C4=N\O)[nH]2)cc1` 9.36

Answer with the recorded inhibition for the compound listed here: CC1=C(C(=O)Nc2cc(Cl)c3[nH]ncc3c2)C(c2ccc(C(F)(F)F)cc2)CC(=O)N1 (stereo not given) 12.6

Determine its reported inhibition: `CNC(=O)c1cc(-c2ccc(F)cc2)cc(-c2ccc(S(=O)(=O)N3CCCC3)cc2)c1N` 5.64

Annotate the compound `CC(C)COC(=O)c1ccc2c(c1)/C(=C/Nc1ccc(S(N)(=O)=O)cc1)C(=O)N2` with its measured inhibition. 64.1

Give a short answer stating reported inhibition for `Fc1ccc(-c2cc(-c3c[nH]nc3-c3ccccn3)ccn2)cc1` . 4.92

Provide only the value of recorded inhibition for `Nc1ncc(-c2cccc(S(N)(=O)=O)c2)c2scc(-c3ccc(F)c(Cl)c3)c12` 51.2

Retrieve inhibition measured for `COc1ccc(-c2cc(-c3c[nH]nc3-c3ccccn3)ccn2)cc1` and print it. 7.48

Complete the entry with inhibition for `CCn1c(-c2nonc2N)nc2ccccc21` 13.7

Tell me its inhibition given `CCNC(=O)O[C@H]1CN[C@H](C#Cc2cc3ncnc(Nc4ccc(OCc5cccc(F)c5)c(Cl)c4)c3s2)C1` as the entry. 6.88

# return recorded inhibition for input `Nc1nc(-c2ccc(F)cc2)c(-c2ccc3ncccc3n2)s1` 10.2

Given `CS(=O)(=O)CCNCc1coc(-c2ccc3ncnc(Nc4ccc(OCc5ccccc5)cc4)c3c2)c1` , respond with its inhibition. 5.71

Provide inhibition value for the following compound: `NS(=O)(=O)c1ccc(Nc2ncc(-c3ccccc3)o2)cc1` 19.4

Input `CCn1c(-c2nonc2N)nc2c(C#CC(C)(C)O)ncc(OC3CCNCC3)c21` , output reported inhibition. 12

Could you please provide reported inhibition for `CNC(=O)c1cncc(/C=C/c2ccccc2Cl)c1` ? Thanks! 6.07

Provide measured inhibition value, entry: `NC(=O)c1sc(-n2cnc3ccc(C(F)(F)F)cc32)cc1OCc1ccccc1Br` 12.8

Give inhibition for `NS(=O)(=O)c1ccc(N/N=C2\C(=O)Nc3ccc4ncccc4c32)cc1` 63.2

Please report inhibition for the following compound: `Clc1ccc(-c2nn3ncccc3c2-c2ccnc(Nc3ccccc3)n2)cc1` 8.26

# return recorded inhibition for entry `Nc1nc(-c2cccc(Cl)c2)c(-c2ccc3ncccc3n2)s1` 9.35

Output inhibition of `Cc1ccc2c(-c3ccnc(Nc4ccccc4)n3)c(-c3ccc(F)cc3)nn2n1` 7.63

State, in one line, measured inhibition of `COC(=O)Nc1nc2ccc(S(=O)(=O)c3ccc(NC(=O)Nc4cc(C(F)(F)F)ccc4F)cc3)cc2[nH]1` 6.79

----------
Would you mind telling me the reported inhibition of each entry?
# studySystem: Serine/threonine-protein kinase PAK 5 (Homo sapiens);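 note: values are mean percent inhibition of PAK5 from a kinase inhibitor set screen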
# assayContext: at 0.1 µM
Please answer in the form of a number followed by its unit of measurement.

Answer with reported inhibition of `CCn1c(-c2nonc2N)nc2cnc(Oc3cccc(NC(=O)c4ccc(N(C)C)cc4)c3)cc21` 2.13%

Tell me its inhibition given `CNC(=O)c1cc(-c2ccc(F)cc2)cc(-c2ccc(S(=O)(=O)N3CCCC3)cc2)c1N` as the entry. 2.26%

Note down inhibition recorded for `COc1cc(Nc2nccc(Nc3ccc4c(C)n[nH]c4c3)n2)cc(OC)c1OC` 1.57%

Give a short answer stating reported inhibition for `COc1ccc(-c2oc3ncnc(N)c3c2-c2ccc(NC(=O)Nc3cc(C(F)(F)F)ccc3F)cc2)cc1` . 16.8%

State its inhibition: `NS(=O)(=O)c1ccc(Nc2ncc(-c3ccccc3)o2)cc1` 8.88%
